Origin of measurements: patent US20110178027A1

- tested-target: T1, PC1/3 (UniProt P29120 111-753)
- T1 chain: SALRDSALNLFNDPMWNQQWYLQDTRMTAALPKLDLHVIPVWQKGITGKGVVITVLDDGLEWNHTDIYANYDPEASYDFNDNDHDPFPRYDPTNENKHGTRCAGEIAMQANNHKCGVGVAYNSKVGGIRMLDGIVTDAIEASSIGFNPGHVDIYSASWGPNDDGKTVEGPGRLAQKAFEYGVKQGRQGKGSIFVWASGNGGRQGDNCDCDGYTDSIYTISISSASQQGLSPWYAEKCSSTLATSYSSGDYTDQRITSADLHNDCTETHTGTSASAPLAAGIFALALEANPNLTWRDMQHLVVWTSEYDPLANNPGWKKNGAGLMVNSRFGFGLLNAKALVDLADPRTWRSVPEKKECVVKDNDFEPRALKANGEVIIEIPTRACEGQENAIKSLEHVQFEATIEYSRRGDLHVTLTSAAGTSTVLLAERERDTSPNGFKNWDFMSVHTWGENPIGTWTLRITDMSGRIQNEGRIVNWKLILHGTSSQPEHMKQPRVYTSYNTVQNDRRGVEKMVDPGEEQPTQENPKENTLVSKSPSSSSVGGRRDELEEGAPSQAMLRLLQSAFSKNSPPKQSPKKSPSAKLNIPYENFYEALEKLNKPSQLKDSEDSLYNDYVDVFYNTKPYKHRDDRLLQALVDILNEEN
- test-summary: enzyme inhibition
No end group written: not given here.
Label 1 (yes) when Ki is strictly below 600 nM; otherwise label 0 (no).

query: Regarding LLLLLRVKR-NH2 [LLLLLRVKR-NH2] , kindly confirm whether its Ki is beneath 600 nM.
result: 1 (yes)

query: Regarding LLRVKR-NH2 [LLRVKR-NH2] , kindly confirm whether its Ki is beneath 600 nM.
result: 1 (yes)

query: Regarding LLLLLLRVKR-NH2 [LLLLLLRVKR-NH2] , kindly confirm whether its Ki is beneath 600 nM.
result: 0 (no)

query: Regarding LLLRVKR-NH2 [LLLRVKR-NH2] , kindly confirm whether its Ki is beneath 600 nM.
result: 1 (yes)

query: Regarding LRVKR-NH2 [LRVKR-NH2] , kindly confirm whether its Ki is beneath 600 nM.
result: 1 (yes)

query: Regarding RVKR-NH2 [RVKR-NH2] , kindly confirm whether its Ki is beneath 600 nM.
result: 0 (no)
